Origin of measurements: patent US20200283519A1

Biological target: T1, human BTN2A2 CFP(Nter)-fusion protein expressed on 293F BTN3/BTN2 KO cells (human, UniProt Q8WVV5 33-523)
T1 construct: also called pcDNA3-Zeo-BTN2A2-CFP; not shown: CFP fused at the N-terminus (CFP(Nter)-fusion)
T1 sequence: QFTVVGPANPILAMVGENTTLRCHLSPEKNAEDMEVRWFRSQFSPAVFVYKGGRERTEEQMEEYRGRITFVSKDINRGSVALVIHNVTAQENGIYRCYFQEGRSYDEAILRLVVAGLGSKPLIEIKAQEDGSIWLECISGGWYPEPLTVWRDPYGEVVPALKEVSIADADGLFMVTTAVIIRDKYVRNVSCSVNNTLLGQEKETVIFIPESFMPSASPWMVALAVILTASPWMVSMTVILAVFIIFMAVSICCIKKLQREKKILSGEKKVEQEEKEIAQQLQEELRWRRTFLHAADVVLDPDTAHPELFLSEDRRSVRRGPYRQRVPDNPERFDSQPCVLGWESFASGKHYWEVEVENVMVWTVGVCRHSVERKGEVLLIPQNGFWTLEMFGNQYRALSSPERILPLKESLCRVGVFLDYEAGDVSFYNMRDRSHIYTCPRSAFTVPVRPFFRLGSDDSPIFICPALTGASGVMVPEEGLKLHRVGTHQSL
Assay: flow cytometry on BTN2A2-transfected 293F BTN3/BTN2 KO cells (summary table, repeats the 7th table)
Collected EC50 values appear next to each entry.
assay.metric: EC50 (µg/mL)

1. mAb4 (mouse anti-human BTN2 mAb 7.48) (antibody, V domains shown, Mouse IgG1 purified from hybridoma supernatant; also called CNCM I-5234) VH: EVQLVESGGDLVKPGGSLKLSCAASGFTFSDFYMYWVRRTPEKRLEWVATISDGGSHTYYPDSVKGRFTISRDNAKNNLYLQMRSLKSEDTAMYYCGRDTTIITPYWGQGTLVTVSA VL: QSVVTQESALTTSPGETVTLTCRSSTGAVTTSNYANWVQEKPDHLFTGLIGGTNNRAPGVPARFSGSLIGDKAALTITGAQTEDEAIYFCGLWYSNHWVFGGGTKLTVL : 0.01
2. mAb5 (mouse anti-human BTN2 mAb 8.15) (antibody, V domains shown, Mouse IgG1 purified from hybridoma supernatant; also called CNCM I-5235) VH: EVKLLESGGGLVQPGGSLKLSCAASGFDFSGYWMTWVRQAPGKGLEWIGEINPDSSTINYTPSLRDKFIISRDNAKNTLYLQMSKVRSEDTALYFCARGSYYPSYWGQGTLVTVSA VL: DIVLTQSPASLAVSLGQRATISCRASKSVSSSGYSYMNWYQQKPGQPPKLLIYLASNLESGVPARFSGSGSGTDFTLNIHPVEDEDAATYYCQHSRELPHTFGGGTKLEIK : 0.5
3. mAb2 (mouse anti-human BTN2 mAb 5.28) (antibody, V domains shown, Mouse IgG1 purified from hybridoma supernatant; also called CNCM I-5232) VH: QIQLVQSGPELKKPGETVKISCKASGYTFTDYSMNWVKQAPGKGLKWVGRINTETGEPTYADDFKGRFAFSLETSASTAYLQIKNLKNEDTATYFCVRDYAKRWGQGTSVTVSS VL: DIVMTQSHKFMSTSVGDRVSITCKASQDVITAVAWYQQKPGQSPKLLIYSTSYRYTGVPDRFTGSGSGTDFTFTISSVQAEDLAVYYCLQHYTTPWTFGGGTKLEIK : 0.01
